Sourced from the RNAGym collection of RNA variant scans (doi:10.7554/elife.80360)

In this section we review reported self-cleavage values for a set of variants.
B1: HDV Ribozyme (parent)
chain: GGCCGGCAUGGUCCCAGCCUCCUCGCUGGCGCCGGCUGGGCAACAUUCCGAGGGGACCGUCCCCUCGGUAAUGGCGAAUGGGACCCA

Variants of: B1
method: self-cleavage, relative activity (ratio to wild type); higher = more cleavage; co-transcriptional
property.label: self-cleavage

> print(dat)
    variant.notation  quantitative.result
 1         C61U C62A                0.978
 2         A16G A51U                0.906
 3         C30A A51U                0.735
 4          G2A G73C               0.0608
 5         G11A U12C               0.0415
 6         C36G G39U               0.0652
 7         A42G C66U                0.591
 8         G38U A77G               0.0923
 9         A16G U79G                0.598
10         C58G G81U                 0.26
11         G59U U69A                 0.85
12          C4A C57U                0.237
13          U9A G10C                0.875
14         G11C C19U               0.0302
15         G38C C61U                0.136
16         G39U A42G                0.249
17          A8G G81A               0.0875
18         G11C C48U                0.119
19         G40C G82U               0.0978
20         U23G G82C                0.222
21         G39U G52A                0.772
22              C14U                 1.09
23          G1C G28A               0.0405
24          C4A A70C                0.136
25         C66G G76U                 0.88
26         C66U G76C                0.965
27         C24U U37G                0.138
28          C3U G73C                0.304
29         C22G C84A               0.0369
30         G53U C86U                 1.14
31         C66A G68A                0.805
32         C19U C63G               0.0707
33         G35A A51U                0.496
34         C49U G53A                0.916
35           C4U U9C                0.727
36         G10C G82A                0.314
37         C24A C63A                0.882
38          C4A G17U               0.0292
39         U46C C66U                0.886
40         G76U G80C                0.204
41         U27C G68C                0.511
42         U27A G38U               0.0426
43          G6A A70U                0.399
44         G52U C84G                0.573
45         C22G C57G                0.219
46         C32U C85A                0.849
